pIC50: −log10 of the molar value.
Measurement record for PDE1A (Homo sapiens (Human)); quantity recorded: pIC50.

{"columns": ["COMPOUND", "MEASURED TARGET", "pIC50"],
 "data": [
  ["Cc1cc2c(cnn2C2CCOCC2)c(=O)n1Cc1ccc(Cl)cc1", "PDE1A (Homo sapiens (Human))", 6.90],
  ["O=c1c2cnn(C3CCOCC3)c2nc(Cc2ccccc2)n1CC1CCCCC1", "PDE1A (Homo sapiens (Human))", 6.46],
  ["CCn1ncc2c(=O)n(Cc3ccc(OC)cc3)c(C)cc21", "PDE1A (Homo sapiens (Human))", 5.95],
  ["COc1ccc(Cn2c(C)cc3c(cnn3C3CCOC3)c2=O)cc1 (stereo not drawn)", "PDE1A (Homo sapiens (Human))", 5.77],
  ["COc1ccc(Cn2c(C)cc3c(cnn3C3CCOCC3)c2=O)cn1", "PDE1A (Homo sapiens (Human))", 6.13],
  ["CCCn1ncc2c(=O)n(Cc3ccc(OC)cc3)c(C)cc21", "PDE1A (Homo sapiens (Human))", 6.54],
  ["COc1ccc(Cn2c(C)cc3c(cnn3C3(C)CCOCC3)c2=O)cc1", "PDE1A (Homo sapiens (Human))", 6.92],
  ["COc1ccc(Cn2c(C)cc3c(cnn3C(C)C)c2=O)cc1", "PDE1A (Homo sapiens (Human))", 7.31],
  ["COc1ccc(Cn2c(C)cc3c(cnn3C3CCCOC3)c2=O)cc1 (stereo not drawn)", "PDE1A (Homo sapiens (Human))", 6.08]
]}
